# experimental.target: T1, SARS‐CoV‐2 spike membrane protein of the Wuhan‐Hu‐1 strain (SARS-CoV-2 Wuhan-Hu-1 (QHD43416.1), UniProt P0DTC2)
# T1 construct: source: HEK293, transiently cotransfected (PEI) with a GFP plasmid, on the cell surface
# assay.protocol: flow cytometry on cells
# setup.conditions: one partner purified
Each entry below carries its recorded MdFI.
Write no unit; give the number alone.

>  <binder>
REGN10987 (Imdevimab) (antibody, V domains shown) VH: QVQLVESGGGVVQPGRSLRLSCAASGFTFSNYAMYWVRQAPGKGLEWVAVISYDGSNKYYADSVKGRFTISRDNSKNTLYLQMNSLRTEDTAVYYCASGSDYGDYLLVYWGQGTLVTVSS VL: QSALTQPASVSGSPGQSITISCTGTSSDVGGYNYVSWYQQHPGKAPKLMIYDVSKRPSGVSNRFSGSKSGNTASLTISGLQSEDEADYYCNSLTSISTWVFGGGTKLTVL

>  <MdFI>
371000

$$$$
>  <binder>
BMS‐986413 (C144) (antibody, V domains shown) VH: EVQLVESGGGLIQPGGSLRLSCAASGFTVSNNYMSWVRQAPGKGLEWVSVIYSGGSTYYADSVKGRFTISRDKSKNTLYLQMNRLRAEDTAVYYCAREGEVEGYNDFWSGYSRDRYYFDYWGQGTLVTVSS VL: QSALTQPASVSGSPGQSITISCTGTSSDVGGYNYVSWYQQHPGKAPKLMIYDVSNRPSGVSNRFSGSKSGNTASLTISGLQAEDEADYYCSSYTSSSTRVFGTGTKVTVL

>  <MdFI>
340000

$$$$

Asked: What value of MdFI has been reported for the following binder? CT‐P59 (Regdanivimab) (antibody, V domains shown, also called Regdanvimab; Regkirona) VH: QITLKESGPTLVKPTQTLTLTCSFSGFSLSTSGVGVGWIRQPPGKALEWLALIDWDDNKYHTTSLKTRLTISKDTSKNQVVLTMTNMDPVDTATYYCARIPGFLRYRNRYYYYGMDVWGQGTTVTVSS VL: ELVLTQPPSVSAAPGQKVTISCSGSSSNIGNNYVSWYQQLPGTAPKLLIYDNNKRPSGIPDRFSGSKSGTSATLGITGLQTGDEADYYCGTWDSSLSAGVFGGGTELTVL
Given back: 131000
